- targetOfAssay: T1, SARS-COV-2 RBD (SARS-COV-2, UniProt P0DTC2 319-539)
- T1 construct: also called WT RBD
- assayProcedure: ELISA, RBD coated on plate
readoutName: EC50 (ng/mL)

binder="C932 (antibody, V domains shown) VH: QVQLVESGGSVVQPGKSLRLSCAGSGFAFSTYGMHWVRQAPGKGLEWVAVISSDGGNKYYADSVKGRFTISRDNYENTLYLQMNSLGAEDTAVYYCAKVALRGVFISLYYGMDVWGQGTTVTVSS VL: SYELTQPPSVSVTPGQTASITCSGDKLGDKYACWFLQKPGQSPLLVIYQDTKRPSGIPDRLSGSKSGNTATLTISGTQAMDEADYYCQTWDSSAVVFGGGTKLTV" readoutname=EC50 readoutunits=ng/mL numericvalue=3.57
